- System: HCT-116 (Colorectal Carcinoma)
- EXPERIMENT_DESCRIPTION: Bliss excess, mean over the matrix (fraction); higher = more synergy;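 note: after 72 h of two-drug dosing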
PROPERTY_MEASURED: Bliss excess
# output: bare number, no unit

COMPOUND	Bliss excess
Cc1c2c(nn1C)CSCc1cc(n(C)n1)CSc1cc(c3ccccc3c1)OCCCc1c(C(=O)O)n(C)c3c-2c(Cl)ccc13 [AZD5991] + Nc1ccn([C@@H]2O[C@H](CO)[C@@H](O)C2(F)F)c(=O)n1 [Gemcitabine] (first compound max 1 µM, 7x7, partner max 0.3 µM)	-0.0854

**Q:** For Cc1nc(Nc2ncc(C(=O)Nc3c(C)cccc3Cl)s2)cc(N2CCN(CCO)CC2)n1 [Dasatinib] + CC(=O)Nc1cccc(-n2c(=O)n(C3CC3)c(=O)c3c(Nc4ccc(I)cc4F)n(C)c(=O)c(C)c32)c1 [Trametinib] (first compound max 2 µM, 7x7, partner max 1 µM) , what is its reported Bliss excess?
**A:** 0.0991

**Q:** // same read-out, input: Cn1cnc2c(F)c(Nc3ccc(Br)cc3Cl)c(C(=O)NOCCO)cc21 [Selumetinib] + CC(C)n1c(=O)n(C)c2cnc3cc(F)c(-c4ccc(OCCCN5CCCCC5)nc4)cc3c21 [AZD1390] (first compound max 10 µM, 7x7, partner max 0.3 µM)
**A:** -0.0129

**Q:** What do you get for Cc1c2c(nn1C)CSCc1cc(n(C)n1)CSc1cc(c3ccccc3c1)OCCCc1c(C(=O)O)n(C)c3c-2c(Cl)ccc13 [AZD5991] + Cn1cnc2c(F)c(Nc3ccc(Br)cc3Cl)c(C(=O)NOCCO)cc21 [Selumetinib] (first compound max 1 µM, 7x7, partner max 3 µM) ?
**A:** -0.0049

**Q:** Next record, please: CN(CCO)CC[C@H](CSc1ccccc1)Nc1ccc(S(=O)(=O)NC(=O)c2ccc(N3CCC([C@@H](O)c4ccccc4-c4ccc(Cl)cc4)CC3)cc2)cc1S(=O)(=O)C(F)(F)F [AZD4320] + Cn1cnc2c(F)c(Nc3ccc(Br)cc3Cl)c(C(=O)NOCCO)cc21 [Selumetinib] (first compound max 1 µM, 7x7, partner max 3 µM)
**A:** -0.0232

* * *

- System: 647-V (Bladder Carcinoma)
- EXPERIMENT_DESCRIPTION: Bliss excess, mean over the matrix (fraction); higher = more synergy
PROPERTY_MEASURED: Bliss excess
Just the number, please.

COMPOUND	Bliss excess
NC1(C(=O)N[C@@H](CCO)c2ccc(Cl)cc2)CCN(c2ncnc3[nH]ccc23)CC1 [Capivasertib] + CC(=O)c1c(C)c2cnc(Nc3ccc(N4CCNCC4)cn3)nc2n(C2CCCC2)c1=O [Palbociclib] (first compound max 10 µM, 7x7, partner max 10 µM)	0.0129
COc1cccc(OCCCN)c1-c1cc(Nc2cnc(C#N)cn2)n[nH]1 [Prexasertib] + O=C(c1cc(Cc2n[nH]c(=O)c3ccccc23)ccc1F)N1CCN(C(=O)C2CC2)CC1 [Olaparib] (first compound max 1 µM, 7x7, partner max 10 µM)	0.0459
COc1nnc2ccc(N3CCC(c4ccc(OCCN5CCN(C)C(=O)[C@H]5C)cc4)CC3)nn12 [AZD5153] + Cn1cnc2c(F)c(Nc3ccc(Br)cc3Cl)c(C(=O)NOCCO)cc21 [Selumetinib] (first compound max 1 µM, 7x7, partner max 10 µM)	0.0604
C[C@@H](c1ccc2nccn2c1)n1nnc2ncc(-c3cnn(C)c3)nc21 [Savolitinib] + Cc1c2c(nn1C)CSCc1cc(n(C)n1)CSc1cc(c3ccccc3c1)OCCCc1c(C(=O)O)n(C)c3c-2c(Cl)ccc13 [AZD5991] (first compound max 1 µM, 7x7, partner max 1 µM)	-0.0594
NC1(C(=O)N[C@@H](CCO)c2ccc(Cl)cc2)CCN(c2ncnc3[nH]ccc23)CC1 [Capivasertib] + CC(C)n1c(=O)n(C)c2cnc3cc(F)c(-c4ccc(OCCCN5CCCCC5)nc4)cc3c21 [AZD1390] (first compound max 10 µM, 7x7, partner max 0.3 µM)	-0.04

**Q:** So what's the measured Bliss excess for this one? CN(CCO)CC[C@H](CSc1ccccc1)Nc1ccc(S(=O)(=O)NC(=O)c2ccc(N3CCC([C@@H](O)c4ccccc4-c4ccc(Cl)cc4)CC3)cc2)cc1S(=O)(=O)C(F)(F)F [AZD4320] + C[C@@H](Nc1cc(F)cc(F)c1)c1cc(C(=O)N(C)C)cc2c(=O)cc(N3CCOCC3)oc12 [AZD8186] (first compound max 1 µM, 7x7, partner max 3 µM)
**A:** 0.0441

**Q:** # iterate: NC1(C(=O)N[C@@H](CCO)c2ccc(Cl)cc2)CCN(c2ncnc3[nH]ccc23)CC1 [Capivasertib] + CCN(CCO)CCCOc1ccc2c(Nc3cc(CC(=O)Nc4cccc(F)c4)[nH]n3)ncnc2c1 [AZD2811] (first compound max 10 µM, 7x7, partner max 1 µM)
**A:** -0.0332

**Q:** Please answer likewise for COc1nnc2ccc(N3CCC(c4ccc(OCCN5CCN(C)C(=O)[C@H]5C)cc4)CC3)nn12 [AZD5153] + CCN(CCO)CCCOc1ccc2c(Nc3cc(CC(=O)Nc4cccc(F)c4)[nH]n3)ncnc2c1 [AZD2811] (first compound max 1 µM, 7x7, partner max 1 µM)
**A:** 0.0236
